target: Alpha-1B adrenergic receptor (Homo sapiens, UniProt P35368); assay: Evaluated for the ability to displace [125I]- HEAT from human cloned Alpha-1B adrenergic receptor stably expressed in LM cells.; type: cell-based
Sequence (P35368 whole entry): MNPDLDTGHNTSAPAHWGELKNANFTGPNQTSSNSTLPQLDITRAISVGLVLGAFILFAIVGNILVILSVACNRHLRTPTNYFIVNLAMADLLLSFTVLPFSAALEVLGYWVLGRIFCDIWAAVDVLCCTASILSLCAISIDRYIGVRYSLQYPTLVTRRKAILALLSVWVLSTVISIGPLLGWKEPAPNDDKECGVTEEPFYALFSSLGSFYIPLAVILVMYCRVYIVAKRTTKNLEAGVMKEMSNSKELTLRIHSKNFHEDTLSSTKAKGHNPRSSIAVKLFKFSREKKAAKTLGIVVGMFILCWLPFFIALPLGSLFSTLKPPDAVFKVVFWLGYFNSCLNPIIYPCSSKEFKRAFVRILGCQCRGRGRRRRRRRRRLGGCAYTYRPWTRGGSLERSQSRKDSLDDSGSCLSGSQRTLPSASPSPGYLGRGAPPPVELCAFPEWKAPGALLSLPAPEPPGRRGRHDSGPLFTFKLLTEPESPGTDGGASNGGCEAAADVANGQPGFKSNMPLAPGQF
pKi: −log10 of the molar value.
observable: pKi

Field: example entries. Status: answers known.
# givenSmiles, assayedSystem, observable, measuredValue
measured = [
    ("N#Cc1cc(F)ccc1C1CCN(CCCNC(=O)C2=C(C(F)(F)F)NC(=O)N[C@@H]2c2ccc(F)c(F)c2)CC1", "Alpha-1B adrenergic receptor (Homo sapiens, UniProt P35368)", "pKi", 6.70),
    ("CC1=C(C(=O)NCCCN2CCC(c3ccc(F)cc3)CC2)[C@@H](c2ccc(F)c(F)c2)NC(=O)N1", "Alpha-1B adrenergic receptor (Homo sapiens, UniProt P35368)", "pKi", 7.40),
    ("CC1=C(C(=O)NCCCN2CCC(c3ccc(F)cc3)CC2)[C@H](c2ccc(F)c(F)c2)NC(=O)N1C", "Alpha-1B adrenergic receptor (Homo sapiens, UniProt P35368)", "pKi", 6.96),
    ("CC(=O)N1C(=O)N(C)C(C)=C(C(=O)NCCCN2CCC(c3ccc(F)cc3)CC2)[C@H]1c1ccc(F)c(F)c1", "Alpha-1B adrenergic receptor (Homo sapiens, UniProt P35368)", "pKi", 7.48),
    ("N#Cc1ccccc1C1CCN(CCCNC(=O)C2=CNC(=O)N[C@@H]2c2ccc(F)c(F)c2)CC1", "Alpha-1B adrenergic receptor (Homo sapiens, UniProt P35368)", "pKi", 6.54),
    ("O=C1NC=C(C(=O)NCCCN2CCC(O)(c3ccc(F)cc3)CC2)[C@@H](c2ccc(F)c(F)c2)N1", "Alpha-1B adrenergic receptor (Homo sapiens, UniProt P35368)", "pKi", 6.80),
]

(A) N#Cc1ccccc1C1CCN(CCCNC(=O)C2=C(C(F)(F)F)NC(=O)N[C@@H]2c2ccc(F)c(F)c2)CC1
(B) COCC1=C(C(=O)NCCCN2CCC(c3ccc(F)cc3C#N)CC2)[C@@H](c2ccc(F)c(F)c2)NC(=O)N1
Q: Which item exceeds the other in pKi, A or B ? Identify your pick by its label.
Result: B
(B: 7.46, A: 6.15)

---

organism: Rattus norvegicus; experiment: Evaluated for the inhibition of A61603-induced prostate contraction in rat; assay type: functional, Prostate gland
observable: AD50 (µg/kg)
Express it in µg/kg; write the number only.

Field: example entries. Status: answers known.
# givenSmiles, measuredValue
measured = [
    ("O=C1NC=C(C(=O)NCCCN2CCC(O)(c3ccc(F)cc3)CC2)[C@@H](c2ccc(F)c(F)c2)N1", 1.2),
    ("COCC1=C(C(=O)NCCCN2CCC(c3ccccn3)CC2)[C@@H](c2ccc(F)c(F)c2)NC(=O)N1", 12),
    ("CC1=C(C(=O)NCCCN2CCC(c3ccc(F)cc3)CC2)[C@@H](c2ccc(F)c(F)c2)N(C)C(=O)N1C", 9),
    ("COCC1=C(C(=O)NCCCN2CCC(c3ccc(F)cc3C#N)CC2)[C@@H](c2ccc(F)c(F)c2)NC(=O)N1", 2.8),
    ("O=C1NC=C(C(=O)NCCCN2CCC(c3ccc(F)cc3)CC2)[C@@H](c2ccc(F)c(F)c2)N1", 2.2),
    ("CC1=C(C(=O)NCCCN2CCC(C#N)(c3ccc(F)cc3)CC2)[C@@H](c2ccc(F)c(F)c2)NC(=O)N1C", 21),
]

Looking up "N#Cc1ccccc1C1(C#N)CCN(CCCNC(=O)C2=CNC(=O)N[C@@H]2c2ccc(F)c(F)c2)CC1" , I found its AD50 recorded as 3

Looking up "CN1C=C(C(=O)NCCCN2CCC(C#N)(c3ccc(F)cc3C#N)CC2)[C@@H](c2ccc(F)c(F)c2)N(C)C1=O" , I found its AD50 recorded as 13
